Target: ZFP SBS#565 (synthetic)
Sequence (chain, as listed by the source): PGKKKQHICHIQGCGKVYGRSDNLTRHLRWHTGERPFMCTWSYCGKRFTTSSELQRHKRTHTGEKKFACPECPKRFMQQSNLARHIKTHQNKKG
Experiment: EMSA
Conditions: tags: MBP fusion
pKd: −log10 of the molar value.
metricName: pKd

{"columns": ["binder", "testResult"],
 "data": [
  ["GATGCTGAG (dsDNA) DNA 1: GATGCTGAG DNA 2: CTCAGCATC", 7.00]
]}

Data origin: patent US20030068675
